These measurements were taken from PubChem BioAssay.

- ASSAY_NOTES: growth effects on S. cerevisiae YJM789 – YJM789 clinical isolate, OD600, 24 h, basal, primary screen (AID 1089);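 further: growth of clinical yeast isolate S. cerevisiae YJM 789 seeded 1000 cells per well; test concentration not given here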
- TEST_PARAMETERS: higher = more signal, called active from +8 up or from −8 down
Quick list: z-score per entry.
Form rule: numeric answer, no unit written next to it.

CCCNC(=O)[C@@H]1c2ccccc2C(=O)N(Cc2ccc(OC(F)(F)F)cc2)[C@H]1c1ccc(CO)cc1 = 0.645

Now let's try a different one.
Task: Return z-score for the following molecule: CC(C)(C)OC(=O)COc1cccc(C(=O)CCN2CCOCC2)c1
Result: -0.728

----------
- ASSAY_NOTES: resazurin metabolic signal in A549 cells – cell-based, resazurin fluorescence, 24 h, PK04 Diversity Set, profiling panel (AID 1171); further: test concentration not given here
- TEST_PARAMETERS: A549 viability, higher = more signal, called active from +8 up or from −8 down
Quick list: z-score per entry.
Form rule: numeric answer, no unit written next to it.

Task: Return z-score for the following molecule: C=CCNC(=O)[C@H]1[C@@H]2C(=O)O[C@@H](c3ccccc3)[C@@H](c3ccccc3)N2[C@@H](c2ccccc2OCCO)[C@]12C(=O)N(C(=O)OCCOC)c1ccc(C#CC3(O)CCCCCC3)cc12
Result: -2.4

Task: Return z-score for the following molecule: C=C(COC)C(=O)CC[C@@H](OC(C)=O)c1cccc(OCCO)c1
Result: 0.387

Task: Return z-score for the following molecule: [N-]=[N+]=Nc1ccccc1[C@H]1OC(c2ccc(OCCCO)cc2)=N[C@@]1(Cc1ccccc1)C(=O)NCCN1CCOCC1
Result: -2
